test system: Neuronal acetylcholine receptor; alpha2/beta2 (Rattus norvegicus, UniProt P12389+P12390)
Sequence (P12390 whole entry, one chain of several): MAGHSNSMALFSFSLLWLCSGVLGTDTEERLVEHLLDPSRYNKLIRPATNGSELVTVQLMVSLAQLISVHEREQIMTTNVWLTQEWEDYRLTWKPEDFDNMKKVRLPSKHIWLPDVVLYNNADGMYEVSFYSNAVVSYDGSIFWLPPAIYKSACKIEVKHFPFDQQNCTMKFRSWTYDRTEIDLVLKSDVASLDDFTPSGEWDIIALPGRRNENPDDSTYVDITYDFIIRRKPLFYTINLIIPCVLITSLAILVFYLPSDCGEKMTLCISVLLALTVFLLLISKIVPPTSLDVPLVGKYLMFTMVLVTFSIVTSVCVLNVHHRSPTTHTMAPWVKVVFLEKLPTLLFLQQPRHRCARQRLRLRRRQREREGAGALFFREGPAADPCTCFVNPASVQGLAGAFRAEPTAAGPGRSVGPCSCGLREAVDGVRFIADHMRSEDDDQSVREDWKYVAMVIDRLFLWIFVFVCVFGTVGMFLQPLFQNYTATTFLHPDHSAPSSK
assay: In vitro binding affinity towards rat Nicotinic acetylcholine receptor alpha2-beta2 using 0.5 nM [3H]epibatidine
Class boundaries, taken from values of Ki, are as follows: zone 1 = under 0.04 nM, zone 2 = from 0.04 nM up to 0.2 nM, zone 3 = 0.2 nM and over

See these solved cases before continuing.
{"columns": ["molecule", "class"],
 "data": [
  ["CN1C2CCC1C(c1cnc(Cl)c(-c3ccccc3)c1)C2 (configuration not stated)", "zone 2"],
  ["Fc1ncc(C2CC3CCC2N3)cc1-c1ccc(Cl)cc1 (configuration not stated)", "zone 2"],
  ["Fc1ncc(C2CC3CCC2N3)cc1-c1ccccc1 (configuration not stated)", "zone 3"],
  ["Fc1ccc(-c2cc(C3CC4CCC3N4)cnc2F)cc1 (configuration not stated)", "zone 2"],
  ["Cc1ccc(-c2cc(C3CC4CCC3N4)cnc2F)cc1 (configuration not stated)", "zone 1"],
  ["Cc1ccc(-c2cc(C3CC4CCC3N4)cnc2Cl)cc1 (configuration not stated)", "zone 2"],
  ["Fc1ncc(C2CC3CCC2N3)cc1-c1ccc(Cl)c(Cl)c1 (configuration not stated)", "zone 3"],
  ["Cc1cccc(-c2cc(C3CC4CCC3N4)cnc2F)c1 (configuration not stated)", "zone 3"]
]}

Entry N#Cc1ccc(-c2cc(C3CC4CCC3N4)cnc2F)cc1 (configuration not stated) belongs to which category?
zone 2

Entry Clc1ncc(C2CC3CCC2N3)cc1-c1ccccc1 (configuration not stated) belongs to which category?
zone 1

Entry Cc1cc(-c2cc(C3CC4CCC3N4)cnc2F)ccc1F (configuration not stated) belongs to which category?
zone 3

###

test system: Neuronal acetylcholine receptor; alpha3/beta2 (Rattus norvegicus, UniProt P04757+P12390)
Sequence (P04757 whole entry): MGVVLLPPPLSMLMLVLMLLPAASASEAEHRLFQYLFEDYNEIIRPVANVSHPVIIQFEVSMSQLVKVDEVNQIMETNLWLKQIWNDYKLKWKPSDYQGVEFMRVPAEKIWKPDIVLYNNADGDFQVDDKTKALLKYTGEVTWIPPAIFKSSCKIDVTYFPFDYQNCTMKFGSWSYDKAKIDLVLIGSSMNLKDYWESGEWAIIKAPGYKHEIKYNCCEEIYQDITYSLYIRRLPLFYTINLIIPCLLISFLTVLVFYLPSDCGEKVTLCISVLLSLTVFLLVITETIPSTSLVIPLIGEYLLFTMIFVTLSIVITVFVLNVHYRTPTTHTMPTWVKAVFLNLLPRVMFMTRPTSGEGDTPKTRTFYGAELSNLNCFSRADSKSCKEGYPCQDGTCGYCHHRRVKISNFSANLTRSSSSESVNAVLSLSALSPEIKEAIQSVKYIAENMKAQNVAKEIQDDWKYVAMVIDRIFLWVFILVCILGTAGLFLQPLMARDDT
Sequence (P12390 whole entry): as the sequence (P12390 whole entry, one chain of several) above
assay: In vitro binding affinity towards rat Nicotinic acetylcholine receptor alpha3-beta2 using 0.5 nM [3H]epibatidine
For each entry below, report its Ki value.
Give bare numbers, in nM.

Would you please look over these solved cases?
{"columns": ["compound", "unit name", "Ki"],
 "data": [
  ["CN1C2CCC1C(c1cnc(Cl)c(-c3ccccc3)c1)C2 (configuration not stated)", "nM", 0.158],
  ["Fc1ncc(C2CC3CCC2N3)cc1-c1ccc(Cl)c(Cl)c1 (configuration not stated)", "nM", 2.31],
  ["Fc1ncc(C2CC3CCC2N3)cc1-c1ccc(Cl)cc1 (configuration not stated)", "nM", 0.339],
  ["N#Cc1ccc(-c2cc(C3CC4CCC3N4)cnc2F)cc1 (configuration not stated)", "nM", 0.351],
  ["Clc1ncc(C2CC3CCC2N3)cc1-c1ccccc1 (configuration not stated)", "nM", 0.122]
]}

Hi there! I need Ki for each item below, if you can.
1. Fc1ccc(-c2cc(C3CC4CCC3N4)cnc2F)cc1 (configuration not stated)
2. Cc1cccc(-c2cc(C3CC4CCC3N4)cnc2F)c1 (configuration not stated)

[0.504, 9.27]

###

test system: Neuronal acetylcholine receptor; alpha2/beta4 (Rattus norvegicus, UniProt P12389+P12392)
Sequence (P12389 whole entry): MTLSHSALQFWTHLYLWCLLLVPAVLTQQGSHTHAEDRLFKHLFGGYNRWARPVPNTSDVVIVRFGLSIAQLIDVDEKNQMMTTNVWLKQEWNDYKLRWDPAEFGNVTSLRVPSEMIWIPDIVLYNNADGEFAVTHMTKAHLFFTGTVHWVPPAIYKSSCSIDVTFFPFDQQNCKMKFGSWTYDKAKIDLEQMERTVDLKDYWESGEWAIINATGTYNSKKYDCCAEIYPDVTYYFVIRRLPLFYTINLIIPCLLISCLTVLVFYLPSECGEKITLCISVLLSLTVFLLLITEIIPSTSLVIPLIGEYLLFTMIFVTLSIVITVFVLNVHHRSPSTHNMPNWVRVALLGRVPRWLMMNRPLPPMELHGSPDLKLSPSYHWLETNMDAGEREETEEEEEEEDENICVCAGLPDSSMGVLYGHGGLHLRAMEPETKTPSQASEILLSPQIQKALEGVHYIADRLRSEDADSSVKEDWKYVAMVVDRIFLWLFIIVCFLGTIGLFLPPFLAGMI
Sequence (P12392 whole entry): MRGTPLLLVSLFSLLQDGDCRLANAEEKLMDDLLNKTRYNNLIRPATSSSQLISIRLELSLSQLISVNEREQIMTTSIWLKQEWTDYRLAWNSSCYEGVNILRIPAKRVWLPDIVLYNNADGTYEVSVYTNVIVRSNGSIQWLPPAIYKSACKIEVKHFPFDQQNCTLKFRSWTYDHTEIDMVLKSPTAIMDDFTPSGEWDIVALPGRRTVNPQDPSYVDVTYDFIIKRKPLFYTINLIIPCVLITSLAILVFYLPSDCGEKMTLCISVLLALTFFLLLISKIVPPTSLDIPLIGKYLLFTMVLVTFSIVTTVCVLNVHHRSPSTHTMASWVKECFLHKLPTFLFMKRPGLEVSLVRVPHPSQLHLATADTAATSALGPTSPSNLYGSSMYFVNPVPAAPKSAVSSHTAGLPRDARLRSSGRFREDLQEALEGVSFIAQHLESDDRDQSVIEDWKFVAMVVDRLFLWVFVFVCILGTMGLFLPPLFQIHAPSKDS
assay: In vitro binding affinity towards rat Nicotinic acetylcholine receptor alpha2-beta4 using 0.5 nM [3H]epibatidine
For each entry below, report its Ki value.
# include the unit after the value

Would you please look over these solved cases?
{"columns": ["molecule", "property name", "result"],
 "data": [
  ["Cc1cccc(-c2cc(C3CC4CCC3N4)cnc2F)c1 (stereo not given)", "Ki", "31.3 nM"],
  ["Cc1ccc(-c2cc(C3CC4CCC3N4)cnc2Cl)cc1 (stereo not given)", "Ki", "5.26 nM"],
  ["CN1C2CCC1C(c1cnc(Cl)c(-c3ccccc3)c1)C2 (stereo not given)", "Ki", "0.24 nM"],
  ["Clc1ncc(C2CC3CCC2N3)cc1-c1ccccc1 (stereo not given)", "Ki", "0.47 nM"]
]}

Next up:
State, in one line, measured Ki of Fc1ccc(-c2cc(C3CC4CCC3N4)cnc2F)cc1 (stereo not given)
6.12 nM

###

test system: Neuronal acetylcholine receptor; alpha3/beta4 (Rattus norvegicus) (UniProt P04757+P12392)
assay: Agonistic activity as [86Rb+] efflux from KXalpha-3-beta-4R2 cells expressing rat Nicotinic acetylcholine receptor at 100 uM
Type: functional
For each entry below, report its Stimulation value.

Would you please look over these solved cases?
{"columns": ["compound", "Stimulation"],
 "data": [
  ["CN1C2CCC1C(c1cnc(Cl)c(-c3ccccc3)c1)C2 (stereo not given)", "3.9%"],
  ["Fc1ncc(C2CC3CCC2N3)cc1-c1ccccc1 (stereo not given)", "0.4%"],
  ["Fc1ccc(-c2cc(C3CC4CCC3N4)cnc2F)cc1 (stereo not given)", "3.6%"],
  ["Cc1cccc(-c2cc(C3CC4CCC3N4)cnc2F)c1 (stereo not given)", "0.1%"]
]}

Next up:
Give Neuronal acetylcholine receptor; alpha3/beta4 (Rattus norvegicus) (UniProt P04757+P12392) Stimulation for the following compound: `CN1CCC[C@H]1c1cccnc1`
100%

###

test system: Neuronal acetylcholine receptor; alpha3/beta2 (Rattus norvegicus, UniProt P04757+P12390)
assay: In vitro binding affinity towards rat Nicotinic acetylcholine receptor alpha3-beta2 using 0.5 nM [3H]epibatidine
For each entry below, report its Ki value.
# include the unit after the value

Would you please look over these solved cases?
{"columns": ["molecule", "result"],
 "data": [
  ["Fc1ncc(C2CC3CCC2N3)cc1-c1ccccc1 (stereo not given)", "3.54 nM"],
  ["Cc1cc(-c2cc(C3CC4CCC3N4)cnc2F)ccc1F (stereo not given)", "8.84 nM"]
]}

Hi there! I need Ki for each item below, if you can.
1. COc1ccc(-c2cc(C3CC4CCC3N4)cnc2Cl)cc1 (stereo not given)
2. Cc1ccc(-c2cc(C3CC4CCC3N4)cnc2Cl)cc1 (stereo not given)
3. Cc1ccc(-c2cc(C3CC4CCC3N4)cnc2F)cc1 (stereo not given)

1: 0.1 nM; 2: 0.171 nM; 3: 0.078 nM
